Molecular target: human full length PDE3A (Homo sapiens (Human))
Property label: IC50 (nM)

Molecule: O=C1NN=C(c2ccc(N3CCC(F)(F)CC3)c(F)c2)CO1 [Example 1]
Property label: IC50
Result unit: nM
Endpoint value: 275
--
Molecule: O=C1NN=C(c2ccc(-c3cnn(C(F)F)c3)c(C(F)F)c2)CO1 [Example 195]
Property label: IC50
Result unit: nM
Endpoint value: 58
--
Molecule: C[C@@H]1OC(=O)NN=C1c1ccc(-c2cccc(N)c2)c(C(F)(F)F)c1 [Example 176]
Property label: IC50
Result unit: nM
Endpoint value: 37
--
Molecule: CC(C)CNc1ccc(C2=NNC(=O)OC2)cc1C(F)(F)F [Example 221]
Property label: IC50
Result unit: nM
Endpoint value: 28
--
Molecule: O=C1NN=C(c2ccc(-c3cc(F)ccc3F)c(F)c2)CO1 [Example 100]
Property label: IC50
Result unit: nM
Endpoint value: 48

P = Cc1cc(-c2ccc(C3=NNC(=O)OC3)cc2F)ccn1 [Example 79]
Q = Cc1ncccc1-c1ccc(C2=NNC(=O)OC2)cc1F [Example 96]
Return label of the item with the larger IC50. Candidates: P , Q . API: response body contains the label of the selected item. Q

----------
# human full length PDE3B (Homo sapiens (Human), UniProt Q13370): IC50 values follow
# Sequence (Q13370 whole entry): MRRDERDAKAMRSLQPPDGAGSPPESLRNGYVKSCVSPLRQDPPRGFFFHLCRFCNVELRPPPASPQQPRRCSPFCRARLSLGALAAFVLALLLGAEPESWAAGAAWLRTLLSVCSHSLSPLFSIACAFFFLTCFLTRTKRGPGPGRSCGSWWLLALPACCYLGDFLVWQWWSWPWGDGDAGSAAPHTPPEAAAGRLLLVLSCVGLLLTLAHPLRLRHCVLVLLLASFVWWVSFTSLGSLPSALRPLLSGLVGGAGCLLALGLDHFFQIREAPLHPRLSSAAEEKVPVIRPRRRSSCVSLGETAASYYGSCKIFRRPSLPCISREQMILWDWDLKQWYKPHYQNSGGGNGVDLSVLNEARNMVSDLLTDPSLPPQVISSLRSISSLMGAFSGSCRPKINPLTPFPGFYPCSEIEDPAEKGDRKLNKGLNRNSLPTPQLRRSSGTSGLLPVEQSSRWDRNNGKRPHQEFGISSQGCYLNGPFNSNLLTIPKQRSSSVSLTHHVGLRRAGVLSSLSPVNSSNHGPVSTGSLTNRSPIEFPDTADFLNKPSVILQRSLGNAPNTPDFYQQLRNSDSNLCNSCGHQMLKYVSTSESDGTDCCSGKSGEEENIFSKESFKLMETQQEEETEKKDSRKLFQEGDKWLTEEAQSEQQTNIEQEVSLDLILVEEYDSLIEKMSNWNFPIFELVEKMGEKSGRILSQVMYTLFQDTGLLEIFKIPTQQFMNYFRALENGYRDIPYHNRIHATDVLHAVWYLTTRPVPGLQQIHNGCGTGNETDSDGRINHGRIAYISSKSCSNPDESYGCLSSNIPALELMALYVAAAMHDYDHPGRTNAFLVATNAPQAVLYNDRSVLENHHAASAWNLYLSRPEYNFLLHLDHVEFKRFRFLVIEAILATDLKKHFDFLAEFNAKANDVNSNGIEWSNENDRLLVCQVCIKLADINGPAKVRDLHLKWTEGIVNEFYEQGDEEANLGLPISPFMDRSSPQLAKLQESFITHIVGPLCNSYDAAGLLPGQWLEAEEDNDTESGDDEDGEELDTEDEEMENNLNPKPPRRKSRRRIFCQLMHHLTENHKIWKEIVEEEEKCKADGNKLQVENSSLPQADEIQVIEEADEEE
Property label: IC50 (nM)

Compound: Cc1ncccc1-c1ccc(C2=NNC(=O)OC2)cc1F [Example 96]
Target system: human full length PDE3B (Homo sapiens (Human), UniProt Q13370)
IC50 (nM): 110

Compound: CC(C)CCNc1ccc(C2=NNC(=O)OC2)cc1C(F)(F)F [Example 220]
Target system: human full length PDE3B (Homo sapiens (Human), UniProt Q13370)
IC50 (nM): 131

Compound: O=C1NN=C(c2ccc(C3=CCOC3)c(C(F)F)c2)CO1 [Example 329]
Target system: human full length PDE3B (Homo sapiens (Human), UniProt Q13370)
IC50 (nM): 93

----------
# human full length PDE3A (Homo sapiens (Human), UniProt Q14432): IC50 values follow
# Sequence (Q14432 whole entry): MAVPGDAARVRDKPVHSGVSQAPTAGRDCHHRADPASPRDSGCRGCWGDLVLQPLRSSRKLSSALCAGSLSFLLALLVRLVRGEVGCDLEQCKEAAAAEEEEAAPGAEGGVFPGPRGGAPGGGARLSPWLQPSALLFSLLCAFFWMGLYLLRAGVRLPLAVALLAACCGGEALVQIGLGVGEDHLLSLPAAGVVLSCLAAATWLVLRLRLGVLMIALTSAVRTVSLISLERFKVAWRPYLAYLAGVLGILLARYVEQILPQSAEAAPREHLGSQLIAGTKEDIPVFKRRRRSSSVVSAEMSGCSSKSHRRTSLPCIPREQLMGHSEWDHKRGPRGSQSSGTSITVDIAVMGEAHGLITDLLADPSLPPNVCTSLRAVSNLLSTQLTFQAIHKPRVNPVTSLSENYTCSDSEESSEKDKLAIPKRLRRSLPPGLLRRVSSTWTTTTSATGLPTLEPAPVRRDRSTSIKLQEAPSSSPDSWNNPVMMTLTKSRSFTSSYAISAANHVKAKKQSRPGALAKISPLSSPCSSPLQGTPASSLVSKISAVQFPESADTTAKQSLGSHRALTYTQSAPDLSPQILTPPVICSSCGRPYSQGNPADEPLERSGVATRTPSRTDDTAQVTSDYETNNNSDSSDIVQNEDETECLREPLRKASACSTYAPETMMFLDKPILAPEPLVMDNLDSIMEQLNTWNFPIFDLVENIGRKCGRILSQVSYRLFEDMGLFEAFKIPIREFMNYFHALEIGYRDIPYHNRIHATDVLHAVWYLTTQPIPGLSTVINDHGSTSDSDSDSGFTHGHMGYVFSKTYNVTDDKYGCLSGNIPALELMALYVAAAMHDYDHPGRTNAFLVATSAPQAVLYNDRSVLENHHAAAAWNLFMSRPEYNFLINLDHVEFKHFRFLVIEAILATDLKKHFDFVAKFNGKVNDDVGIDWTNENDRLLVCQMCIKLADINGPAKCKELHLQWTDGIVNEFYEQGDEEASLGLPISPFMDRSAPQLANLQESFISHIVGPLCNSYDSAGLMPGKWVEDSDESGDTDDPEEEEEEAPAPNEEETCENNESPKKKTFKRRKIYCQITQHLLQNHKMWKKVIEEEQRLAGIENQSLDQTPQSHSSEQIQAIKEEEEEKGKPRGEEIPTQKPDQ
Property label: IC50 (nM)

Sample records with IC50:
Compound: CC1(CNc2ccc(C3=NNC(=O)OC3)cc2C(F)(F)F)COC1 [Example 213]
Endpoint value: 68

Compound: CC(C)Nc1ccc(C2=NNC(=O)OC2)cc1C(F)(F)F [Example 137]
Endpoint value: 52

Compound: N#CC1CCN(c2ccc(C3=NNC(=O)OC3)cc2C(F)(F)F)CC1 [Example 239]
Endpoint value: 27

a = O=C1NN=C(c2ccc(N3CC[C@H]3CO)c(C(F)(F)F)c2)CO1 [Example 250]
b = C[C@@H]1OC(=O)NN=C1c1ccc(-c2ccc(F)c(F)c2F)c(C(F)(F)F)c1 [Example 170]
c = C[C@@H]1OC(=O)NN=C1c1ccc(-c2ccc3cc[nH]c3c2)c(C(F)(F)F)c1 [Example 185]
d = O=C1NN=C(c2ccc(-c3cc(F)c(F)c(F)c3)c(C(F)(F)F)c2)CO1 [Example 58]
Ordering criterion: IC50; begin with the maximum. Hello, could you send the labels back in the order asked? Thank you. d, b, a, c

I = Cc1ncc(-c2ccc(C3=NNC(=O)OC3)cc2C(F)(F)F)s1 [Example 54]
II = Cc1cc(C2=NNC(=O)OC2)ccc1C1=CCOCC1 [Example 10]
III = Cc1ccc(-c2ccc(C3=NNC(=O)O[C@H]3C)cc2C(F)(F)F)cn1 [Example 167]
Ordering criterion: IC50; begin with the maximum. Hello, could you send the labels back in the order asked? Thank you. II, I, III
